Tested on: cancer cell lines
Assay: cells
Assay type: cell-based
Details: cancer cell lines

{"compound": "CCNC1COC(OC2C(OCCOC34C#CC=CC#CC5N(C(=O)OCCS(=O)(=O)c6ccccc6)c6ccccc6C36OC56CCC4)OC(C)C(NOC3CC(O)C(SC(=O)c4c(C)c(I)c(OC5OC(C)C(O)C(OC)C5O)c(OC)c4OC)C(C)O3)C2O)CC1OC (stereo not shown) [Compound 127b]", "cytotoxicity (qualitative)": "particularly effective"}
{"compound": "CCNC1COC(OC2C(OCCOC34C#CC=CC#CC5N(C(=O)OCCS(=O)(=O)c6ccccc6)c6ccccc6C36OC56CCC4)OC(C)C(NOC3CC(O)C(SC(=O)c4c(C)c(I)c(OC5OC(C)C(O)C(OC)C5O)c(OC)c4OC)C(C)O3)C2O)CC1OC (stereo not shown) [Compound 127a]", "cytotoxicity (qualitative)": "particularly effective"}

---

System: P-388 mouse lymphoma cells
Test: Sulforhodamine B cytotoxicity, P-388
Type: cell-based
Details: Table 7, P-388; read-out: Cytotoxicity (IC50)
quantity_measured: pIC50
// field semantics: pIC50 = negative decimal log of concentration (mol/L)

pIC50 for CC(COC(=O)N1c2ccccc2C23OC24CCCC3C#CC=CC#CC14)S(=O)(=O)c1ccccc1 (stereo not shown) ?
5.80

---

Assay: Sulforhodamine B cytotoxicity, HMEC
Format: cell-based, human
Details: human, 10^-8 M, read-out: cell viability
quantity_measured: viability at 72 h, 0.01 µM (%)
Report as a plain number; the unit % is understood.

viability at 72 h, 0.01 µM for O=C(OCCS(=O)(=O)c1ccccc1)N1c2ccc(OCCO)cc2C23OC24CCCC3C#C/C=C\C#CC14 (stereo not shown) [Compound 153] ?
100

---

Test system: NHDF normal human dermal fibroblasts
Assay: cells
Format: cell-based
Settings: Homo sapiens; NHDF, normal cells; read-out: IC50
quantity_measured: pIC50
// field semantics: pIC50 = negative decimal log of concentration (mol/L)

pIC50 for C[N+](C)(C)CC(=O)OCCOc1ccc2c(c1)[C@@]13O[C@]14CCC[C@H]3C#C/C=C\C#C[C@@H]4N2C(=O)OCCS(=O)(=O)c1ccccc1 (relative stereo) ?
5.20

---

Tested on: φX174 Form I DNA
Assay: φX174 supercoiled DNA cleavage, agarose gel
Type: biochemical
Conditions: 5 mM, pH 8.0, 24 hours
quantity_measured: DNA cleavage

{"molecule": "O=C1C=CC23OC24C2(O)C#C/C=C\\C#CC(N(C(=O)Oc5ccccc5)C3=C1)C4(O)CCC2 (stereo not shown)", "measured_value": "significant DNA cleavage"}
{"molecule": "C1#CC2Nc3ccccc3C34OC23CCCC4C#C/C=C\\1 (stereo not shown)", "measured_value": "significant DNA cleavage"}
{"molecule": "O=C(Oc1ccccc1)N1c2cc(O)ccc2C23OC24CCCC3(O)C#C/C=C\\C#CC14 (stereo not shown)", "measured_value": "significant DNA cleavage"}

---

Experiment: in vitro
Type: cell-based, human
Details: human, nhdf cells; Table 7, NHDF; read-out: Cytotoxicity (IC50)
quantity_measured: CC50 (µM)
Report as a plain number; the unit µM is understood.

CC50 for O=C(Oc1ccccc1)N1c2ccccc2C23OC24CCCC3C#C/C=C\C#CC14 (centres unmarked) [Compound 21] ?
6.3

---

System: NHDF normal human dermal fibroblasts
Assay: cells
Type: cell-based
Conditions: Homo sapiens; NHDF; control drugs; read-out: Range of Average IC50 Values, NHDF
The following molecules are shown together with reported IC50 values.
Report as a plain number; the unit nM is understood.

Recorded IC50, per entry:
{"molecule": "CN(Cc1cnc2nc(N)nc(N)c2n1)c1ccc(C(=O)N[C@@H](CCC(=O)O)C(=O)O)cc1 [Methotrexate]", "system_tested": "NHDF normal human dermal fibroblasts", "quantity_measured": "IC50", "endpoint_unit": "nM", "measured_value": 50000}
{"molecule": "COC1=C(C(=O)O)[C@H](C)[C@@]23O[C@]24c2cc(O)c5c(c2N[C@H]3C#C/C=C\\C#C[C@H]14)C(=O)c1c(O)ccc(O)c1C5=O [Dynemicin A]", "system_tested": "NHDF normal human dermal fibroblasts", "quantity_measured": "IC50", "endpoint_unit": "nM", "measured_value": 10}

Query molecule follows.
IC50 for CC(=O)O[C@H]1C(=O)[C@@]2(C)[C@H]([C@H](OC(=O)c3ccccc3)[C@]3(O)C[C@H](OC(=O)[C@H](O)[C@@H](NC(=O)c4ccccc4)c4ccccc4)C(C)=C1C3(C)C)[C@]1(OC(C)=O)CO[C@@H]1C[C@@H]2O [Taxol] ?
10
